# Lookup of reported drop in potency with hnNOS relative to 12 keyed by entry
- Measurement Target: UniProt:P29475
- Measurement Notes: NO-hemoglobin
- Format: biochemical
- Cond: compared with 12

{"Chemical Smiles": "Cc1cc(N)nc(C#CCN2CCN(C)CC2)c1", "Result": "~73 fold"}

Lookup: drop in potency with hnNOS relative to 12 / UniProt:P29475 / Cc1cc(N)nc(C#CCCN(C)C)c1 11 fold

Next: Cc1cc(N)nc(CCCCN(C)C)c1 ~2 fold

Next: Cc1cc(N)nc(C#CCN2CCC(F)(F)CC2)c1 ~49 fold

Next: Cc1cc(N)nc(C#CCN2CC(F)(F)C2)c1 ~17 fold
